Data credit: patent US20240228562A1

Target: T1, Murine CTGF (Mus musculus, UniProt P29268)
T1 construct: purchased Abbexa
T1 sequence (P29268 26-348): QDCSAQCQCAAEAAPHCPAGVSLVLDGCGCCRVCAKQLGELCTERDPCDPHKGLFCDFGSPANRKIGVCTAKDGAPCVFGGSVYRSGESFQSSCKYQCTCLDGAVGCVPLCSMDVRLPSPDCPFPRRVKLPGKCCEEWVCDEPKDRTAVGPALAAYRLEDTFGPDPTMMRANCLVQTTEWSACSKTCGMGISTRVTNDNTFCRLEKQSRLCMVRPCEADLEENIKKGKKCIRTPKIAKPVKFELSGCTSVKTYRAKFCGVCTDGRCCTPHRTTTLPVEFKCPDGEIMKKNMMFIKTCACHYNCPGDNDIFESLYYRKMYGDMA
Assay: SPR binding kinetics and affinity, murine CTGF
Details: 25° C., 1:1 binding model
result_type: Murine CTGF koff (s⁻¹)
The reply should contain only the number, in s⁻¹.

For SEQ ID NO: 15: optimized CTGF-binding hNGAL lipocalin mutein (protein, lipocalin mutein) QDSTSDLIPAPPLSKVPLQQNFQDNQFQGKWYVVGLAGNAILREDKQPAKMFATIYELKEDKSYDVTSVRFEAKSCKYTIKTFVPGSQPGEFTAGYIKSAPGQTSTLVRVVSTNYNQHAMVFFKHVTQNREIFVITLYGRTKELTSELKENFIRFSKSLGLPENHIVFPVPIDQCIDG the molecule record lists Murine CTGF koff as 4.51e-05

Murine CTGF koff in this record for SEQ ID NO: 33: optimized CTGF-binding hNGAL lipocalin mutein (protein, lipocalin mutein) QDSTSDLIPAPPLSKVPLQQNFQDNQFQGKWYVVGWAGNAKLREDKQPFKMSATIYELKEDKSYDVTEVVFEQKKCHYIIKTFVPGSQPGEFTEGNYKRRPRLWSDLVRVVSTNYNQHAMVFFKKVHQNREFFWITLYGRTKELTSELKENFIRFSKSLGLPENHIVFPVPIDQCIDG : 5.29e-05
